Ref: the supplement of paper PMC11208160

Assay: recombinant barcode read abundance after kanamycin selection (control-corrected) (log10(CPM+1)); higher = more efficient recombination; sequences stand for … in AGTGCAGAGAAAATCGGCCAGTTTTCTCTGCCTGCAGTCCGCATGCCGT…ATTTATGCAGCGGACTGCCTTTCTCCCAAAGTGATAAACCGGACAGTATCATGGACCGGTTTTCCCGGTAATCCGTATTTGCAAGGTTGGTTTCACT; site = the 11-nt target
Measured recombinant barcode read abundance (log10) by item
Output: the number by itself.

AGGAGGTCTTGGGTTCTAACCTGTTGCCTAT [AGGAGGTCTAG_LTGcore_CT_RTGcore_AT] (site AGGAGGTCTAG) (LTG core: CT, RTG core: AT) :: 0.407
GTCGCCCATTGGGTTCTAACCTGTTGCTAAG [GTCGCCCCTTA_LTGcore_AT_RTGcore_CT] (site GTCGCCCCTTA) (LTG core: AT, RTG core: CT) :: 0.926
GCGCGACCTTGGGTTCTAACCTGTTGCTTAC [GCGCGACCTAA_LTGcore_CT_RTGcore_GT] (site GCGCGACCTAA) (LTG core: CT, RTG core: GT) :: 0.23

Given the entry GGCTCCCCTTGGGTTCTAACCTGTTGCGGGG [GGCTCCCCTCC_LTGcore_CT_RTGcore_CC] (site GGCTCCCCTCC) (LTG core: CT, RTG core: CC) , report its measured recombinant barcode read abundance (log10).
0.0955

###

Assay: recombinant barcode read abundance after kanamycin selection (control-corrected) (log10(CPM+1)); higher = more efficient recombination; sequences stand for … in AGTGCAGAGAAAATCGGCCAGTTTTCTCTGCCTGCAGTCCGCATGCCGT…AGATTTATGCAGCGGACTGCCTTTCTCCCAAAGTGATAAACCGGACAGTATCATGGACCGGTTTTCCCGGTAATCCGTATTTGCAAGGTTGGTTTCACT; site = the 11-nt target
readout.name: recombinant barcode read abundance (log10)
Answer using only a numeral; do not append any unit.

Reference set (2 entries):
GAGAAGCCTTGGGTTCTAACCTGTTGCCT (site TAGAAGCCTAG) :: 0.639
GACTTTCCTTGGGTTCTAACCTGTTGCAT (site GACTTGCCTAT) :: 0.0607

Any idea what recombinant barcode read abundance (log10) was measured for TTAGTCGCTTGGGTTCTAACCTGTTGCCT (site TTAGTTGCTAG) ?
0.0472

What does the data say about its recombinant barcode read abundance (log10)? Entry: GTGACCTCTTGGGTTCTAACCTGTTGCTG (site GTGACCTCTCA)
1.51

Quick one: recombinant barcode read abundance (log10) for ACTGGTTCTTGGGTTCTAACCTGTTGCCG (site ACTGGTTCTCG) ?
0.696

Using the record for CACTGTTCTTGGGTTCTAACCTGTTGCCT (site CACTGCTCTAG) , report its recombinant barcode read abundance (log10).
0.0508

Form field: reported recombinant barcode read abundance (log10) of TCGCGGACTTGGGTTCTAACCTGTTGCCT (site TCTCGGACTAG)
0.0887

For ATAATAGCTTGGGTTCTAACCTGTTGCCT (site ATAACAGCTAG) , what is its reported recombinant barcode read abundance (log10)?
0.0342

Given the entry GCAGCGACTTGGGTTCTAACCTGTTGCCT (site GCGGCGACTAG) , report its measured recombinant barcode read abundance (log10).
0.277

What value of recombinant barcode read abundance (log10) has been reported for the following sequence? CGAGGGACTTGGGTTCTAACCTGTTGCCT (site CGAGGGTCTAG)
0.056

GET /values?readout=recombinant barcode read abundance (log10)&item= TCACCTGCTTGGGTTCTAACCTGTTGCCT (site TCACATGCTAG)
0.0199

I would be grateful if you could share the reported recombinant barcode read abundance (log10) for ACGGAGTCTTGGGTTCTAACCTGTTGCTA (site TACAGACCTCT) .
0.0854

For the sequence ACCAACACTTGGGTTCTAACCTGTTGCTT (site TATTTAGCTCC) , what recombinant barcode read abundance (log10) is on record?
0.259

What recombinant barcode read abundance (log10) value was documented for this sequence, GCTCAGACTTGGGTTCTAACCTGTTGCCT (site GCTCAGCCTAG) ?
0.0925

###

Assay: recombinant UMI read abundance after kanamycin selection (control-corrected) (log10(CPM+1)); higher = more efficient recombination; extreme values may be limits of the assay; sequences stand for … in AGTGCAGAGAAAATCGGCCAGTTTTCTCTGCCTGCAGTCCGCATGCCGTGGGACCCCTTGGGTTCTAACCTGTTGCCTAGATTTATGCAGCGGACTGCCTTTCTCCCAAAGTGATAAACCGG…AGGTTGGTTTCACT; site = the 11-nt donor
readout.name: recombinant UMI read abundance (log10)
Quick one: just the number, no unit, thanks!

ATCGCGGCATGGACCGGTTTTCCCGGTAATCCGTATTTGTC (site ATCGCGGCTGA) :: 2.69
ACGTTTACATGGACCGGTTTTCCCGGTAATCCGTATTTGCT (site TCGTTTACTAG) :: 1.37
TATAATACATGGACCGGTTTTCCCGGTAATCCGTATTTGCA (site TATAATACTTG) :: 0.242

Here is another sequence to look at.
Quick check: recombinant UMI read abundance (log10) of CGGGTGTCATGGACCGGTTTTCCCGGTAATCCGTATTTGCC (site CGGGAGTCTGG) ?
0.659

###

Assay: recombinant UMI read abundance after kanamycin selection (control-corrected) (log10(CPM+1)); higher = more efficient recombination; extreme values may be limits of the assay; sequences stand for … in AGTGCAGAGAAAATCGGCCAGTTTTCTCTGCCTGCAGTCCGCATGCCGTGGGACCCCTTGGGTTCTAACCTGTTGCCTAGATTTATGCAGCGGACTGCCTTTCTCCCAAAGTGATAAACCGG…AGGTTGGTTTCACT; site = the 11-nt donor
// values below are reported recombinant UMI read abundance (log10)
Reply with the value as a number alone.

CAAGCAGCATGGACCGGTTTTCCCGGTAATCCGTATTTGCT (site CACGCAGCTAG) :: 0.416
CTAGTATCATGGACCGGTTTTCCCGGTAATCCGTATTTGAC (site CACGTATCTGT) :: 0.0166
TACGAATCATGGACCGGTTTTCCCGGTAATCCGTATTTGCG (site TAAGAATCTCG) :: 0

Okay, next one:
For CCGCATCCATGGACCGGTTTTCCCGGTAATCCGTATTTGGG (site CCGCATCCTCC) , what is its reported recombinant UMI read abundance (log10)?
0.0031

###

Experiment: recombinant UMI read abundance after kanamycin selection (control-corrected) (log10(CPM+1)); higher = more efficient recombination; extreme values may be limits of the assay; sequences stand for … in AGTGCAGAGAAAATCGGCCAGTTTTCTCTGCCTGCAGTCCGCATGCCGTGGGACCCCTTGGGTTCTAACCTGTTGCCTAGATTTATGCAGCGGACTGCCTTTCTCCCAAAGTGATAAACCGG…AGGTTGGTTTCACT; site = the 11-nt donor
readout.name: recombinant UMI read abundance (log10)
Give a plain numeric answer without units written out.

Record excerpt, results attached:
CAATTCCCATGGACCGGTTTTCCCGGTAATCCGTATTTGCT (site CAAATCCCTAG) :: 0.763
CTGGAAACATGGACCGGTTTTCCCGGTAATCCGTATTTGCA (site CTGGAAGCTTG) :: 1.51
GTCGTAGCATGGACCGGTTTTCCCGGTAATCCGTATTTGCC (site GTCGTAGCTGG) :: 2.67
AACCGACCATGGACCGGTTTTCCCGGTAATCCGTATTTGAT (site AACCGCCCTAT) :: 0
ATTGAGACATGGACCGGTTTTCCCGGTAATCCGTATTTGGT (site ATTGAGACTAC) :: 1.39
GCCTACCCATGGACCGGTTTTCCCGGTAATCCGTATTTGAA (site GCCTACCCTTT) :: 0.0461
GGTACGTCATGGACCGGTTTTCCCGGTAATCCGTATTTGGA (site GGTACGTCTTC) :: 0.695
CACTGCTCATGGACCGGTTTTCCCGGTAATCCGTATTTGCC (site CACTACTCTGG) :: 2

Give its recombinant UMI read abundance (log10) value. Item: CTAGTGTCATGGACCGGTTTTCCCGGTAATCCGTATTTGAC (site CTAGTGTCTGT)
0

Give its recombinant UMI read abundance (log10) value. Item: GAAAAACCATGGACCGGTTTTCCCGGTAATCCGTATTTGGT (site GAGAAACCTAC)
0

What recombinant UMI read abundance (log10) value was documented for this sequence, GCTTGGCCATGGACCGGTTTTCCCGGTAATCCGTATTTGAT (site GCTTGCCCTAT) ?
0.00795

What value of recombinant UMI read abundance (log10) has been reported for the following sequence? GGGGCGCCATGGACCGGTTTTCCCGGTAATCCGTATTTGCA (site GGGGCTCCTTG)
0

Any idea what recombinant UMI read abundance (log10) was measured for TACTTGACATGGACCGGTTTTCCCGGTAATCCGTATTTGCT (site AACTTGACTAG) ?
0

GET /values?readout=recombinant UMI read abundance (log10)&item= TAGCATTCATGGACCGGTTTTCCCGGTAATCCGTATTTGGT (site TAGCCTTCTAC)
0.00694

Which recombinant UMI read abundance (log10) is listed for TCCTCGCCATGGACCGGTTTTCCCGGTAATCCGTATTTGTT (site TCCTCGCCTAA) ?
0.0142

Value lookup for recombinant UMI read abundance (log10); key = CTGACATCATGGACCGGTTTTCCCGGTAATCCGTATTTGCT (site CAGACATCTAG)
1.06

Name the recorded recombinant UMI read abundance (log10) for CCCGGTTCATGGACCGGTTTTCCCGGTAATCCGTATTTGCT (site CCCGGTTCTAG) .
0

Fill in the blank: the reported recombinant UMI read abundance (log10) of GGTCCTACATGGACCGGTTTTCCCGGTAATCCGTATTTGTA (site GGTCCTACTTA) is ____.
0.0187

Returns the measured recombinant UMI read abundance (log10) for the input sequence. Input: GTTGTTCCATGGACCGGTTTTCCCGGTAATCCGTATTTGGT (site GTTGTTCCTAC)
0.00461

Requested read-out: recombinant UMI read abundance (log10). Entry: CAGTAAGCATGGACCGGTTTTCCCGGTAATCCGTATTTGTG (site CAGTAAGCTCA)
2.41

What does the data say about its recombinant UMI read abundance (log10)? Entry: GAGTGATCATGGACCGGTTTTCCCGGTAATCCGTATTTGCT (site GAGTGATCTAG)
2.62

recombinant UMI read abundance (log10) lookup needed for GCGGAGCCATGGACCGGTTTTCCCGGTAATCCGTATTTGGG (site GCGAAGCCTCC) , thanks.
0.0138

Form field: reported recombinant UMI read abundance (log10) of GTATGTACATGGACCGGTTTTCCCGGTAATCCGTATTTGAC (site GTAAGTACTGT)
0.262

Name the reported recombinant UMI read abundance (log10) value associated with the sequence AGCCTTCCATGGACCGGTTTTCCCGGTAATCCGTATTTGAC (site AGCCTTTCTGT)
0

Please look up its recombinant UMI read abundance (log10): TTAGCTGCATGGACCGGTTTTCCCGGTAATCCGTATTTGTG (site GTAGCTGCTCA)
0.0161

Tell me the measured recombinant UMI read abundance (log10) of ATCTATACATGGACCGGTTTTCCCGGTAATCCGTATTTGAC (site ATCTGTACTGT) , please.
0

For the sequence CTCGTCTCATGGACCGGTTTTCCCGGTAATCCGTATTTGAC (site CTAGTATCTGT) , what recombinant UMI read abundance (log10) is on record?
0

Using the record for CAATGAGCATGGACCGGTTTTCCCGGTAATCCGTATTTGGG (site TAATGAGCTCC) , report its recombinant UMI read abundance (log10).
0.0682

I have this sequence here, CGCCGTACATGGACCGGTTTTCCCGGTAATCCGTATTTGCC (site CGCCGTACTTG) , and I need its recorded recombinant UMI read abundance (log10).
0.384

Look up recombinant UMI read abundance (log10): TCATACTCATGGACCGGTTTTCCCGGTAATCCGTATTTGCG (site TCATACTCTAG)
0

recombinant UMI read abundance (log10) for TCAGTCACATGGACCGGTTTTCCCGGTAATCCGTATTTGAG (site TCAGTCACTCT) ?
0.702

Request the reported recombinant UMI read abundance (log10) associated with AGGGCTACATGGACCGGTTTTCCCGGTAATCCGTATTTGAC (site AGGCCTACTGT)
0

What does the record list as recombinant UMI read abundance (log10) for AATGTAACATGGACCGGTTTTCCCGGTAATCCGTATTTGGT (site AATGTAACTAC) ?
1.36

Which value of recombinant UMI read abundance (log10) has been reported for ATCTCTACATGGACCGGTTTTCCCGGTAATCCGTATTTGAC (site ATCTATACTGT) in the records?
0.264
